The values you see were collected from patent US20260015426A1.

HEK-Blue, IL-33, % inhibition at 100 nM (Fab) values for the binders below.
# assay.target: T1, human IL1RAP (hu-IL1RAP) on human cells (human, UniProt Q9NPH3 21-570)
# T1 sequence: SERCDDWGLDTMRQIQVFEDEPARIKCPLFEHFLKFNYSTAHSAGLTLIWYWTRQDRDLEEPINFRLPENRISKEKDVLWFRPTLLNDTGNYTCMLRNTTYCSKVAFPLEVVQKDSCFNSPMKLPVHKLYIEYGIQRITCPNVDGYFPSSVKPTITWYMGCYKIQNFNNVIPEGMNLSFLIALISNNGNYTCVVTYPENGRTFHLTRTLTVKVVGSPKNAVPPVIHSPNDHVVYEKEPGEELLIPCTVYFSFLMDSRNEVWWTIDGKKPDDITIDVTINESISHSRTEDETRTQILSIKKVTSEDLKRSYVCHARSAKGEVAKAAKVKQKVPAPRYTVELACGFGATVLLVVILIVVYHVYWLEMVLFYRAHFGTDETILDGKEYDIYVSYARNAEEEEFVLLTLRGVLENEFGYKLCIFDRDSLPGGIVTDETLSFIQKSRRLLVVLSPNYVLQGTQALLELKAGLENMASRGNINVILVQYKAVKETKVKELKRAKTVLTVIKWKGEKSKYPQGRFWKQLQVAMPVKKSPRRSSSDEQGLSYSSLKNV
# protocol.description: cell-based or functional assay
Numeric answer only, unit % assumed.

{"columns": ["binder", "unit", "value.reported"],
 "data": [
  ["K10 Fab (VL A51Y) (Fab, V domains shown, Fab with 8xHis tag) VH: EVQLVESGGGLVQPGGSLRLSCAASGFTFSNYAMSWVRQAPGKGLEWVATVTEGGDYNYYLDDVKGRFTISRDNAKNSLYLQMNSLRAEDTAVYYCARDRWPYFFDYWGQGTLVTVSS VL: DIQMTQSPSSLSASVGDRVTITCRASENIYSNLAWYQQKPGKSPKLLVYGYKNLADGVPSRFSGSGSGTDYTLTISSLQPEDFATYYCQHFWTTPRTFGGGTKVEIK", "%", 98]
]}

Determine its reported HEK-Blue, IL-33, % inhibition at 100 nM (Fab): K17/H3 Fab (VL-A51Y/W92K, VH-V51S) (Fab, V domains shown, Fab with 8xHis tag) VH: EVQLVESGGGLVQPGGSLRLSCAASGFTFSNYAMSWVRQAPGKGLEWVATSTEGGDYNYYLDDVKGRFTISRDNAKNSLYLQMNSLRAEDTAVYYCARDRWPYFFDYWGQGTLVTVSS VL: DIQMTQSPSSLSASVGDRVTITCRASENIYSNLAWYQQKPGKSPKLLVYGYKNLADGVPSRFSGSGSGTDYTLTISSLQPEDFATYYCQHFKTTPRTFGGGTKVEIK
98

Determine its reported HEK-Blue, IL-33, % inhibition at 100 nM (Fab): K13 Fab (VL A51Y/W92I) (Fab, V domains shown, Fab with 8xHis tag) VH: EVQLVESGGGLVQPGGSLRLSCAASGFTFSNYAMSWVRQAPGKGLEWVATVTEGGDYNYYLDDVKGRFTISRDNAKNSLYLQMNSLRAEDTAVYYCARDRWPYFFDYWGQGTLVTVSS VL: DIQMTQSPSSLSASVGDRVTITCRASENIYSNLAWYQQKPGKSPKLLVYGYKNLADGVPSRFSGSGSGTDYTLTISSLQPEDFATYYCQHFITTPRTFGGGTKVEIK
98

Determine its reported HEK-Blue, IL-33, % inhibition at 100 nM (Fab): K13/H3 Fab (VL-A51Y/W92I, VH-V51S) (Fab, V domains shown, Fab with 8xHis tag) VH: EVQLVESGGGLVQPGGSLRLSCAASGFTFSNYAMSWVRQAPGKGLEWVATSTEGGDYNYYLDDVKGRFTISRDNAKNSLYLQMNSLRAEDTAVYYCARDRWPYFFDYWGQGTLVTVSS VL: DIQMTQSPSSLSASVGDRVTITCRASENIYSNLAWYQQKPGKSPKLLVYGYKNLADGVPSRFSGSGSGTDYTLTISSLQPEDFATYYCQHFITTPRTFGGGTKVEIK
99

Determine its reported HEK-Blue, IL-33, % inhibition at 100 nM (Fab): K17 Fab (VL A51Y/W92K) (Fab, V domains shown, Fab with 8xHis tag) VH: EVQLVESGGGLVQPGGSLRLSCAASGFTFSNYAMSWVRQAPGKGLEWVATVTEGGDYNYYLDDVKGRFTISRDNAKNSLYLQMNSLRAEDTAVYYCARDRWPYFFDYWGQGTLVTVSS VL: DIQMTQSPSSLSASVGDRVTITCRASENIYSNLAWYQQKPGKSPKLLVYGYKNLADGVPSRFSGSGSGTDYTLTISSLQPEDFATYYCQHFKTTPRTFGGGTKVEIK
96
